# test_description: CREB reporter modulators under forskolin, primary screen, cell-based, PC12, CRE-LacZ reporter, forskolin-stimulated (AID 1146);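 note: PC12 cells with 6xCRE LacZ reporter stimulated by forskolin 10 µM; beta-galactosidase reporter signal reflecting CREB driven transcription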
# condition_notes: luminescence, 4.5 h, higher = more signal, called active from +8 up or from −8 down
Decide by z-score: equal to or exceeding -0.9 means satisfied, less means not satisfied.

compound=COCCCN1C(=O)[C@@]2(Cc3ccccc31)c1ccccc1C(=O)N(Cc1ccccc1Cl)[C@H]2c1ccc(CO)cc1 category_label=satisfied
compound=CC(C)(C)OC(=O)CC[C@@]1(C(=O)N2CCOCC2)N=C(c2ccc(OCCCO)cc2)O[C@@H]1c1ccccc1 category_label=satisfied
compound="C=CCC(OC(C)=O)[C@@H]1[C@@H](N(Cc2cccc3ccccc23)C(=O)Cc2ccc(OC)cc2)c2cc(OCCCO)ccc2N1C(=O)Cc1ccc(OC)cc1 (some centres not stated)" category_label="not satisfied"
compound=COc1ccc([Si](C)(C)[C@H]2[C@H](CCO)O[C@@]3(C(=O)N(Cc4ccc(N5C(=O)c6cccc7cccc5c67)cc4)c4ccccc43)[C@@H]2C)cc1 category_label="not satisfied"
compound=C=C(COC)C(=O)CC[C@H](OC(=O)c1ccccc1-c1ccccc1C(=O)O)c1ccccc1OCCO category_label=satisfied
compound=C=CCN1C(=O)[C@@]2(O[C@@H](CCO)[C@H]([Si](C)(C)c3ccc(OC)cc3)[C@H]2C)c2cc(N(C=O)c3ccccc3)ccc21 category_label="not satisfied"

---

# test_description: E. coli growth modulation, two-sided OD650, primary screen, E. coli filamentation project, strain DRC41, 24 h (AID 1093);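 note: MC1000 strain lacking acrAB efflux and sulA so SOS filamentation is blocked; test concentration not given here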
# condition_notes: OD650, 24 h, higher = more signal, called active from +8 up or from −8 down
endpoint_name: z-score

compound=COCCOC(=O)N1C(=O)[C@@]2(c3cc(C#CC4(O)CCCCCC4)ccc31)[C@H](c1ccccc1OCCO)N1[C@H](c3ccccc3)[C@H](c3ccccc3)OC(=O)[C@H]1[C@@H]2C(=O)Nc1nc2ccccc2s1 readout_value=2.69
compound=CC(C)[C@@H](C(=O)O)n1cc(-c2ccccn2)nn1 readout_value=1.99
compound=C=C(COC)C(=O)CC[C@H](OC(=O)c1ccccc1-c1ccccc1C(=O)O)c1ccccc1OCCO readout_value=1.4
compound=O=C(NCc1ccccc1)[C@@H]1c2ccccc2C(=O)N(Cc2ccccc2Cl)[C@H]1c1ccc(CO)cc1 readout_value=2.1
compound=C=C(CCCC)/C(=C/C[C@@H](OC(=O)c1ccncc1)c1ccc(OCCO)cc1)c1cnc2ccccc2c1 readout_value=1.48
compound=CO[C@H]1O[C@H](CO)[C@@H](OC(=O)Nc2ccccc2)[C@H](OC(=O)Nc2ccc3c(c2)OCO3)[C@H]1OC(=O)Nc1ccc2c(c1)OCO2 readout_value=2.75
compound=CC(C)N1C(=O)c2ccccc2[C@@H](C(=O)NCc2ccccc2)[C@@H]1c1ccc(CO)cc1 readout_value=0.846
compound=COc1ccc(CCNC(=O)[C@@]2(Sc3ccc(C)cc3)CC(=O)N(Cc3ccccc3)[C@@H]2c2ccc(CO)cc2I)cc1 readout_value=0.485
compound="C=CCC(OC(C)=O)[C@@H]1[C@@H](N(Cc2cccc3ccccc23)C(=O)Cc2ccc(OC)cc2)c2cc(OCCCO)ccc2N1C(=O)Cc1ccc(OC)cc1 (stereo not given in full)" readout_value=2.21
compound=C=C(C(=O)CC[C@H](OC(C)=O)c1ccc(CO)o1)C(C)C readout_value=1.44
compound=C=CCNC(=O)[C@@H]1[C@H]2C(=O)O[C@H](c3ccccc3)[C@H](c3ccccc3)N2[C@H](c2ccc(O)cc2)[C@@]12C(=O)N(C(=O)OCCOC)c1ccc(C#Cc3ccc(OC)cc3)cc12 readout_value=2.2
compound=C=CCNC(=O)[C@H]1[C@@H]2C(=O)O[C@@H](c3ccccc3)[C@@H](c3ccccc3)N2[C@@H](c2ccccc2OCCO)[C@]12C(=O)N(C(=O)OCCOC)c1ccc(C#CCCO)cc12 readout_value=1.68
compound=CO[C@H]1O[C@H](CO)[C@@H](OC(=O)Nc2ccccc2)[C@H](OC(=O)Nc2ccccc2-c2ccccc2)[C@@H]1OC(=O)Nc1ccccc1-c1ccccc1 readout_value=1.36
compound=CC(C)C(=C=CC[C@@H](O)c1ccc(CO)o1)CCO readout_value=1.17
compound=COc1ccc([Si](C)(C)[C@@H]2[C@@H](CCn3cc(CCO)nn3)O[C@]3(C(=O)N(Cc4ccc(N5C(=O)c6cccc7cccc5c67)cc4)c4ccccc43)[C@H]2C)cc1 readout_value=2.61
